# system: ER (Homo sapiens (Human), UniProt P03372)
# Sequence (P03372 whole entry): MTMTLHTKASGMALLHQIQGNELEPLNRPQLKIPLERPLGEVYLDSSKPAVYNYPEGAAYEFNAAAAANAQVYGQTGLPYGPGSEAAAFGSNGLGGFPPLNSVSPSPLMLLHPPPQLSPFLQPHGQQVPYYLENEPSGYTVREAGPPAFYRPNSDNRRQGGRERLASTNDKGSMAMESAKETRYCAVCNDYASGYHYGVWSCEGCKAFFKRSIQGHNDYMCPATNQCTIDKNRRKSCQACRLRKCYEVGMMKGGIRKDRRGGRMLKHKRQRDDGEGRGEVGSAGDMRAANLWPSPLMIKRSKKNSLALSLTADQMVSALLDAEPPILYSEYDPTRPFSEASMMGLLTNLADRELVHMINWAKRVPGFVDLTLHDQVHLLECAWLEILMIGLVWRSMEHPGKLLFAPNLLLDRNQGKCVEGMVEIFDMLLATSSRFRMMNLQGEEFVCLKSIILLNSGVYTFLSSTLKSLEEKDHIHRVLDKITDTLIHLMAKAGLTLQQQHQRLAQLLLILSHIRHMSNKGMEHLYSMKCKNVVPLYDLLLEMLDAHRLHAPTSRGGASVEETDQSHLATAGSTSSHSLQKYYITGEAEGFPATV
# assay_explanation: In-cell western (ICW) ER degradation assay in MCF-7 cells
# Type: cell-based
# conditions_used: ER degradation, MCF7, 16 hrs
Where a name gives a salt, the structure may show the parent alone.
Exercise: state measured DC50 for each of the compounds provided.

Q. Returns the measured DC50 for the input compound. Input: O=C1CC[C@@H](N2Cc3cc4c(cc3C2=O)CN(C(=O)CN2CCC3(CC2)CCN(c2ccc([C@H]5c6ccc(O)cc6OC[C@H]5c5ccccc5)cc2)CC3)C4)C(=O)N1 (single isomer, unassigned)
A. 1 to 10 nM

Q. May I ask what DC50 has been recorded for O=C1CCC(NC(=O)c2ccc(N3CCN(CC4CC5(CCN(c6ccc([C@@H]7c8ccc(O)cc8OC[C@@H]7c7ccccc7)cc6)CC5)C4)CC3)cn2)C(=O)N1 (stereo partly drawn) ?
A. < 1 nM

Q. Field request: DC50 | item: COc1nc(C(=O)NC2CCC(=O)NC2=O)ccc1N1CCN(CC2CCN(c3ccc([C@H]4c5ccc(O)cc5OC[C@H]4c4ccccc4)cc3F)CC2)CC1 (single isomer, unassigned)
A. < 1 nM

Q. Which DC50 value belongs to O=C1CCC(NC(=O)c2ccc3c(n2)OC[C@H]2CN(CC4CC5(CCN(c6ccc([C@@H]7c8ccc(O)cc8OC[C@@H]7c7ccccc7)cc6)CC5)C4)CCN32)C(=O)N1 (stereo partly drawn) ?
A. 1 to 10 nM

Q. Quick one: DC50 of O=C1CC[C@H](N2Cc3cc4c(cc3C2=O)OC[C@@H]2CN(CC3CC5(CCN(c6ccc([C@@H]7c8ccc(O)cc8OC[C@@H]7c7ccccc7)cc6)CC5)C3)CCN42)C(=O)N1 (single isomer, unassigned) ?
A. 1 to 10 nM

Q. Entry O=C1CCC(N2C(=O)c3cc4c(cc3C2=O)CN(C(=O)CN2CC3(CCN(c5ccc([C@H]6c7ccc(O)cc7OC[C@H]6c6ccccc6)cc5)CC3)C2)C4)C(=O)N1 (single isomer, unassigned) [Compound A55, formate] : reported DC50 = ?
A. > 100 nM

Q. Could you share which DC50 value was measured for COc1cc(N2CCC(CN3CCN4c5ccc6c(c5OC[C@@H]4C3)CN([C@@H]3CCC(=O)NC3=O)C6=O)CC2)c(F)cc1[C@@H]1c2ccc(O)cc2OC[C@@H]1c1ccccc1 (single isomer, unassigned) ?
A. < 1 nM

Q. What value of DC50 has been recorded for this entry: O=C1CCC(N2Cc3cc4c(cc3C2=O)CN(C(=O)C2CCN(C3CCN(c5ccc([C@@H]6c7ccc(O)cc7OC[C@@H]6c6ccccc6)cc5)CC3)CC2)C4)C(=O)N1 (single isomer, unassigned)
A. < 1 nM

Q. Could you tell me which DC50 is on file for O=C1CCC(N2Cc3c(ccc4c3OC[C@H]3CN(CC5CCN(c6ncc([C@@H]7c8ccc(O)cc8OC[C@@H]7c7ccccc7)cn6)CC5)CCN43)C2=O)C(=O)N1 (single isomer, unassigned) ?
A. 10 to 100 nM

Q. What DC50 value was documented for this compound, O=C1CCC(N2Cc3cc4c(cc3C2=O)CN(C(=O)CN2CC3(CCN(c5ccc([C@H]6c7ccc(O)cc7OC[C@H]6c6ccccc6)cc5)CC3)C2)C4)C(=O)N1 (single isomer, unassigned) ?
A. > 100 nM

Q. Requested read-out: DC50. Entry: `COc1cc(N2CCC(CN3CCC(c4ccc(N[C@@H]5CCC(=O)NC5=O)cc4)CC3)CC2)ccc1[C@@H]1c2ccc(O)cc2OC[C@@H]1c1ccccc1`
A. < 1 nM

Q. Given the compound `O=C1CC[C@@H](N2Cc3cc4c(cc3C2=O)OC[C@H]2CN(C[C@@H]3COC5(CCN(c6ccc([C@H]7c8ccc(O)cc8OC[C@H]7c7ccccc7)cc6F)CC5)C3)CCN42)C(=O)N1` , what is its reported DC50?
A. 1 to 10 nM
